Where these numbers come from: the supplement of paper PMC12855868

B1: library; numbered along this chain (parent)
chain: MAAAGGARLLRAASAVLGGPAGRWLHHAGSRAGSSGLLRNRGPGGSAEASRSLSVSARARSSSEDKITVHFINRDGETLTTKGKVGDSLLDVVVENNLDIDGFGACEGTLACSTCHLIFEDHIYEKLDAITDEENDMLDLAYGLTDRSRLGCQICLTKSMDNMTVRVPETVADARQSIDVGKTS

- Variants of: B1
- ASSAY METHOD TEXT: scaled log2 fold change in cell abundance, elesclomol vs control (0 = silent mean, 1 = nonsense mean) (scaled log2 ratio); higher = higher viability under elesclomol (loss of FDX1 cuproptosis function);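 further: variant abundance is its share of total variant reads in each endpoint sample, from next-generation sequencing of the integrated ORF PCR-amplified out of genomic DNA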
- REPORTED CONDITIONS: with HEK293T FDX1 KO; elesclomol 40 nM; glucose 10 mM; 11 days
So basically: scaled log2 fold change at -0.1 or higher? That is yes. Lower than -0.1? That is no.

| VARIANT ANNOTATION | CLASS ASSIGNMENT |
| --- | --- |
| S54C | no |
| G33H | yes |
| A13E | yes |
| G42V | no |
| R8D | no |
| S50V | yes |
| E125D | yes |
| M137R | yes |
| K66R | no |
| F103N | yes |
| N40C | yes |
| L144Y | no |
| E77R | no |
| K82W | yes |
| I72E | no |
| K158I | no |
| R147N | yes |
